- assayTarget: Adrenergic receptor alpha (Rattus norvegicus) (UniProt P15823+P23944+P43140+P22086+P19328+P22909)
- testMethodNotes: Binding affinity to alpha adrenergic receptors in rat aorta
- Type: tissue-based
I would appreciate it if you labelled entries label 1 when pD2 is 6 or higher, otherwise label 0.

Prompt: Hello, I need to know if NCC(O)c1ccc(I)c(O)c1 (centres undefined) has measured pD2 not below 6. Thanks!
Response: label 0

Prompt: Is the recorded value of pD2 equal to or greater than 6 for this molecule? Cc1ccc(C(O)CN)cc1O (centres undefined)
Response: label 0

Prompt: Does pD2 meet or surpass 6 for NCC(O)c1ccc(Br)c(O)c1 (centres undefined) ?
Response: label 0

Prompt: Would you say NCC(O)c1ccc(C2CCCCC2)c(O)c1 (centres undefined) shows pD2 at minimum 6?
Response: label 0

Prompt: Does the reported pD2 for NCC(O)c1cccc(O)c1 (centres undefined) fall at or above the 6 mark?
Response: label 1

Prompt: Decide: pD2 of NCC(O)c1ccc(O)c(C2CCCCC2)c1 (centres undefined) >= 6?
Response: label 1

Prompt: I'd appreciate it if you could say whether CS(=O)(=O)Nc1cc(C(O)CN)ccc1O (centres undefined) has pD2 at least equal to 6.
Response: label 1

Prompt: Given the entry CCc1ccc(C(O)CN)cc1O (centres undefined) , answer whether its pD2 meets or surpasses 6.
Response: label 0

Prompt: Decide: is the reported value of pD2 for CC(C)c1ccc(C(O)CN)cc1O (centres undefined) equal to or greater than 6?
Response: label 0

Prompt: Does the molecule NCC(O)c1ccc(O)c(Br)c1 (centres undefined) have recorded pD2 that is 6 or more?
Response: label 0

Prompt: Determine whether measured pD2 meets or exceeds 6 for NCC(O)c1ccc(Cl)c(O)c1 (centres undefined)
Response: label 1

Prompt: Exam item: decide whether the reported pD2 for COc1cc(C(O)CN)ccc1O (centres undefined) is at least 6.
Response: label 1

Prompt: In plain terms: is recorded pD2 at least 6 for COC(=O)c1cc(C(O)CN)ccc1O (centres undefined) ?
Response: label 0

Prompt: Quick check, pD2 >= 6? NCC(O)c1ccc(O)c(I)c1 (centres undefined)
Response: label 0

Prompt: Evaluate COc1ccc(C(O)CN)cc1O (centres undefined) : pD2 at minimum 6?
Response: label 0

Prompt: Check the entry NCC(O)c1ccc(O)c(C(=O)O)c1 (centres undefined) : does pD2 equal or exceed 6?
Response: label 0

Prompt: Does the reported pD2 for "NC[C@H](O)c1ccc(O)c(O)c1" fall at or above the 6 mark?
Response: label 1

Prompt: Could you tell me if the measured pD2 of CC(C)c1cc(C(O)CN)ccc1O (centres undefined) reaches 6 or more?
Response: label 1

Prompt: Decide: is the reported value of pD2 for CS(=O)(=O)Nc1ccc(C(O)CN)cc1O (centres undefined) equal to or greater than 6?
Response: label 0

Prompt: Kindly determine if pD2 recorded for NCC(O)c1ccc(O)c(F)c1 (centres undefined) is above or exactly 6.
Response: label 1

---

- assayTarget: Adrenergic receptor alpha (Rattus norvegicus) (UniProt P15823+P23944+P43140+P22086+P19328+P22909)
- testMethodNotes: Ratio of maximum contraction of rat aorta elicited versus that elicited by noradrenaline (defined as intrinsic activity)
- Assay type: functional, tissue-based
measuredEndpoint: Ratio
Hey, just send me the number, nothing else.

Prompt: Determine its reported Ratio: COc1ccc(C(O)CN)cc1O (stereo unspecified)
Response: 1

Prompt: Tell us which Ratio value is on record for NCC(O)c1ccc(O)c(Br)c1 (stereo unspecified)
Response: 1.1

Prompt: Specify Ratio for NCC(O)c1ccc(O)c(C2CCCCC2)c1 (stereo unspecified) and stop.
Response: 1.1

Prompt: Supply reported Ratio belonging to this compound: CS(=O)(=O)Nc1ccc(C(O)CN)cc1O (stereo unspecified)
Response: 0.8

Prompt: # return recorded Ratio for entry CCc1ccc(C(O)CN)cc1O (stereo unspecified)
Response: 1.1

Prompt: Please look at this compound and report its Ratio: Cc1cc(C(O)CN)ccc1O (stereo unspecified)
Response: 1

Prompt: Specify reported Ratio for the compound shown: NCC(O)c1ccc(C2CCCCC2)c(O)c1 (stereo unspecified)
Response: 0.7

Prompt: For the compound NCC(O)c1ccc(I)c(O)c1 (stereo unspecified) , report Ratio.
Response: 0.9

Prompt: Find the measured Ratio of NCC(O)c1ccc(O)c(F)c1 (stereo unspecified) and report it.
Response: 1

Prompt: Look up and state reported Ratio for CC(C)c1ccc(C(O)CN)cc1O (stereo unspecified)
Response: 0.7

Prompt: Look up and state reported Ratio for NCC(O)c1cccc(O)c1 (stereo unspecified)
Response: 1

Prompt: Item NCC(O)c1ccc(O)c(I)c1 (stereo unspecified) : provide Ratio
Response: 0.9

Prompt: Identify the reported Ratio for the following entry. COC(=O)c1cc(C(O)CN)ccc1O (stereo unspecified)
Response: 0.9

Prompt: Report Ratio for COc1cc(C(O)CN)ccc1O (stereo unspecified)
Response: 1.1

Prompt: Retrieve Ratio measured for NCC(O)c1ccc(Cl)c(O)c1 (stereo unspecified) and print it.
Response: 1.1

Prompt: Please report the measured Ratio for CS(=O)(=O)Nc1cc(C(O)CN)ccc1O (stereo unspecified)
Response: 1.1

Hey, just so you know, these numbers are from ChEMBL document CHEMBL1121471.
